# procedure_details: Stability in cynomolgus monkey fecal homogenate
# Type: in vitro ADME
# condition_set: cynomolgus monkey, 20% fecal homogenate (supernatant), anaerobic, pH 6.8, 20% cynomolgus monkey fecal homogenate, 37° C., read-out: t½: Monkey Feces anaerobic (converted)
Bridge positions count the residues as written; N and C are the ends. Square brackets hold non-standard residues; d marks the D form. Peptide text beside a SMILES is read from it. His(π-Bom) = N[C@@H](Cc1cncn1COCc1ccccc1)C(=O)O; Trp(7-Me) = Cc1cccc2c(C[C@H](N)C(=O)O)c[nH]c12; 2Nal = N[C@@H](Cc1ccc2ccccc2c1)C(=O)O; Pen = CC(C)(S)[C@H](N)C(=O)O; αMeK = C[C@](N)(CCCCN)C(=O)O
The compounds listed here are annotated with their half-life at 20 μM.

CC(=O)NCCCC[C@@H]1NC(=O)[C@H](Cc2c[nH]c3c(C)cccc23)NC(=O)[C@H]([C@@H](C)O)NC(=O)[C@H](CC(N)=O)NC(=O)[C@@H](NC(C)=O)C(C)(C)SSC(C)(C)[C@@H](C(=O)N[C@@H](Cc2ccc(OCCN)cc2)C(=O)N[C@@H](Cc2ccc3ccccc3c2)C(=O)N[C@@](C)(CCCCN)C(=O)N[C@@H](CCCCNC(C)=O)C(=O)N[C@@H](CC(N)=O)C(=O)N[C@H](Cc2ccccc2)C(N)=O)NC1=O    > 24 h

Below: the item to evaluate.
Record CC(=O)NCCCC[C@@H]1NC(=O)[C@H](Cc2c[nH]c3c(C)cccc23)NC(=O)[C@H]([C@@H](C)O)NC(=O)[C@H](CC(N)=O)NC(=O)[C@@H](NC(C)=O)C(C)(C)SSC(C)(C)[C@@H](C(=O)N[C@@H](Cc2cncn2COCc2ccccc2)C(=O)N[C@@H](Cc2ccc3ccccc3c2)C(=O)N[C@@](C)(CCCCN)C(=O)N[C@@H](CCCCNC(C)=O)C(=O)N[C@@H](CC(N)=O)C(=O)N[C@H](CC(C)C)C(N)=O)NC1=O [compound 291] (Ac-[Pen]NT[Trp(7-Me)]K(Ac)[Pen][His(π-Bom)][2Nal][αMeK]K(Ac)N[dL]-NH2; disulfide 1-6) . Reported half-life at 20 μM: > 24 h
